Ref: patent US8986729B2

# PROCEDURE TEXT: Settling and resuspendability of drug suspensions after 7 days storage
# Assay type: physicochemical
# COND: drug suspension in VE1; 7 days, dark, room temperature; scale 0-10, 10=none, 0=all at bottom
Where a name gives a salt, the structure may show the parent alone.
MEASURED METRIC: Settling

[[record]]
compound = "COc1ccc(CCN(C)CCCC(C#N)(c2ccc(OC)c(OC)c2)C(C)C)cc1OC (centres unmarked) [Verapamil Hydrochloride, verapamil hydrochloride]"
reported_value = 7

[[record]]
compound = "CC(C)Cc1ccc(C(C)C(=O)O)cc1 (centres unmarked) [Ibuprofen, ibuprofen]"
reported_value = 8

[[record]]
compound = "CC(CCc1ccccc1)NCC(O)c1ccc(O)c(C(N)=O)c1 (centres unmarked) [Labetalol Hydrochloride, labetalol hydrochloride]"
reported_value = 9

[[record]]
compound = "CC(C[N+](C)(C)C)OC(N)=O (centres unmarked) [Bethanechol Chloride, bethanechol chloride]"
reported_value = 8

[[record]]
compound = "NCC(CC(=O)O)c1ccc(Cl)cc1 (centres unmarked) [Baclofen, baclofen]"
reported_value = 8


* * *

# PROCEDURE TEXT: Subjective rating of drug suspensions immediately after preparation (ease of preparation, homogeneity, viscosity)
# Assay type: physicochemical
# COND: drug suspension in OO; scale 0-10, 0=drug settles completely and immediately, 10=consistently homogenous
Counter-ions that a name gives are not always drawn.
MEASURED METRIC: Homogeneity

For orientation, consider the following solved cases.
[[record]]
compound = "COc1ccc(CCN(C)CCCC(C#N)(c2ccc(OC)c(OC)c2)C(C)C)cc1OC (centres unmarked) [Verapamil Hydrochloride, verapamil hydrochloride]"
reported_value = 8

[[record]]
compound = "NCC(CC(=O)O)c1ccc(Cl)cc1 (centres unmarked)"
reported_value = 9

[[record]]
compound = "CC(C)Cc1ccc(C(C)C(=O)O)cc1 (centres unmarked)"
reported_value = 9


(A) CC(C[N+](C)(C)C)OC(N)=O (centres unmarked) [Bethanechol Chloride, bethanechol chloride]
(B) CC(CCc1ccccc1)NCC(O)c1ccc(O)c(C(N)=O)c1 (centres unmarked) [Labetalol Hydrochloride, labetalol hydrochloride]
Would you kindly point out which of A and B has the smaller Homogeneity figure? Kindly state the label of the option you pick.
B

* * *

# PROCEDURE TEXT: Subjective rating of drug suspensions immediately after preparation (ease of preparation, homogeneity, viscosity)
# Format: physicochemical
# COND: drug suspension in OO; subjective scale 0-10, 0=water, 10=thick molasses
Counter-ions that a name gives are not always drawn.
MEASURED METRIC: Viscosity

For orientation, consider the following solved cases.
[[record]]
compound = "NCC(CC(=O)O)c1ccc(Cl)cc1 (centres unmarked)"
measured_metric = "Viscosity"
reported_value = 6

[[record]]
compound = "CC(C[N+](C)(C)C)OC(N)=O (centres unmarked) [Bethanechol Chloride, bethanechol chloride]"
measured_metric = "Viscosity"
reported_value = 5

[[record]]
compound = "COc1ccc(CCN(C)CCCC(C#N)(c2ccc(OC)c(OC)c2)C(C)C)cc1OC (centres unmarked) [Verapamil Hydrochloride, verapamil hydrochloride]"
measured_metric = "Viscosity"
reported_value = 2


(P) CC(C)Cc1ccc(C(C)C(=O)O)cc1 (centres unmarked)
(Q) CC(CCc1ccccc1)NCC(O)c1ccc(O)c(C(N)=O)c1 (centres unmarked) [Labetalol Hydrochloride, labetalol hydrochloride]
Param pair: P , Q . Output: the one whose Viscosity is numerically greater. Kindly state the label of the option you pick.
P
(P: 4, Q: 1)
